Ref: PubChem BioAssay

- protocolSummary: modulators of MEP2-GFP levels in yeast, confirmation, S. cerevisiae, flow cytometry GFP, cherry picks (AID 2272);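 note: ratio of well signal to plate DMSO mean so 100% equals DMSO level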
- testConditions: S. cerevisiae MEP2-GFP strain, 3 h, at 10 µM, hits give high values
Exercise: state measured GFP response vs DMSO for each of the molecules provided.
One number for each entry, in %.

Below are some molecules; for each one, tell me its GFP response vs DMSO.
1. CCCc1nnc(NC(=O)c2nc(S(=O)(=O)Cc3ccc(C)cc3)ncc2Cl)s1
2. O=C(O)C1CCC(NSc2ccccc2[N+](=O)[O-])CC1 (stereo not given)
3. CCc1nnc(NC(=O)CSc2nnc(C3CCCCC3)n2-c2cccc(Cl)c2)s1
4. CCC(=O)OCCNc1cc(Sc2nc3ccccc3s2)c2nonc2c1[N+](=O)[O-]
5. Cc1c(NC2=C(Cl)C(=O)N(c3ccccc3)C2=O)c(=O)n(-c2ccccc2)n1C
6. COc1ccc(/C=C/C(=O)c2ccc(Cl)cc2)c(OC)c1

Ans.
[103, 96.8, 102, 97.8, 99.5, 100]
